These data points were gathered from ChEMBL document CHEMBL3611998.

Experiment Description: Inhibition of beta-lactamase SHV-12 (unknown origin) using nitrocefin substrate incubated for 10 mins
Please provide measured Ki for the entries that follow.
Answers are plain numbers, in µM.

1. O=C1CC(CBr)N1OS(=O)(=O)c1ccc2ccccc2c1 (stereo not drawn)    0.19

Now for a further compound.
Entry O=C1CC(CBr)N1OS(=O)(=O)c1cccc2ccccc12 (stereo not drawn) has what Ki?
0.198

====

Experiment Description: Inhibition of beta-lactamase CTX-M-14 (unknown origin) using nitrocefin substrate incubated for 10 mins
Please provide measured Ki for the entries that follow.

1. O=C1CC(CBr)N1OS(=O)(=O)c1cccc2ccccc12 (stereo not drawn)    > 160 µM
2. CC(C)c1cc(C(C)C)c(S(=O)(=O)ON2C(=O)CC2CBr)c(C(C)C)c1 (stereo not drawn)    > 160 µM

Now for a further molecule.
Entry O=C1CC(CBr)N1OS(=O)(=O)c1ccc2ccccc2c1 (stereo not drawn) has what Ki?
> 160 µM

====

Please provide measured zone of inhibition at 2000 µM for the entries that follow.
Test system: Escherichia coli
Experiment Description: Antimicrobial activity against Escherichia coli DC2 assessed as very very unclear inhibition zone at 2 mM incubated for 20 hrs by agar diffusion assay
Assay type: functional
Condition Parameters: DC2, 20 h, read-out: DIZ

Below are 4 compounds. Give each one its zone of inhibition at 2000 µM.
1. O=C1CC(CBr)N1OS(=O)(=O)c1ccc([N+](=O)[O-])cc1 (stereo not drawn)
2. O=C1CC(CBr)N1OS(=O)(=O)c1ccc2ccccc2c1 (stereo not drawn)
3. Cc1ccc(S(=O)(=O)ON2C(=O)CC2CSC2=NCCS2)cc1 (stereo not drawn)
4. COc1ccc(S(=O)(=O)ON2C(=O)CC2CBr)cc1 (stereo not drawn)

["14 mm", "15 mm", "14 mm", "15 mm"]

Below are 4 compounds. Give each one its zone of inhibition at 2000 µM.
1. Cc1ccc(S(=O)(=O)ON2C(=O)CC2CBr)cc1 (stereo not drawn)
2. O=C1CC(CBr)N1OS(=O)(=O)c1cccs1 (stereo not drawn)
3. O=C1CC(CBr)N1OS(=O)(=O)c1ccc([N+](=O)[O-])cc1[N+](=O)[O-] (stereo not drawn)
4. CN(C)c1cccc2c(S(=O)(=O)ON3C(=O)CC3CBr)cccc12 (stereo not drawn)

["13 mm", "16 mm", "15 mm", "14 mm"]

====

Test system: Escherichia coli
Experiment Description: Antimicrobial activity against Escherichia coli DC0 at 2 mM incubated for 20 hrs by agar diffusion assay
Type: functional
Condition Parameters: DC0, 20 h, read-out: DIZ
Measured Endpoint: zone of inhibition at 2000 µM (mm)
One number for each entry, in mm.

// known answers, use as guide
1. Cc1ccc(S(=O)(=O)ON2C(=O)CC2Cn2cc(CNC(=O)c3ccccc3)nn2)cc1 (stereo unspecified)    0
2. O=C1CC(CBr)N1OS(=O)(=O)c1ccc([N+](=O)[O-])cc1 (stereo unspecified)    0
3. Cc1ccc(S(=O)(=O)ON2C(=O)CC2CSC2=NCCS2)cc1 (stereo unspecified)    0
4. O=C1CC(CBr)N1OS(=O)(=O)c1ccc([N+](=O)[O-])cc1[N+](=O)[O-] (stereo unspecified)    0
5. Cc1ccc(S(=O)(=O)ON2C(=O)CC2CBr)cc1 (stereo unspecified)    0

Now for a further compound.
Entry O=C1CC(CBr)N1OS(=O)(=O)c1ccc2ccccc2c1 (stereo unspecified) has what zone of inhibition at 2000 µM?
0
